Items are presented alongside their recorded MFI.
# study.system: human PD-L1 (human) (UniProt Q9NZQ7)
# Sequence (Q9NZQ7 19-290): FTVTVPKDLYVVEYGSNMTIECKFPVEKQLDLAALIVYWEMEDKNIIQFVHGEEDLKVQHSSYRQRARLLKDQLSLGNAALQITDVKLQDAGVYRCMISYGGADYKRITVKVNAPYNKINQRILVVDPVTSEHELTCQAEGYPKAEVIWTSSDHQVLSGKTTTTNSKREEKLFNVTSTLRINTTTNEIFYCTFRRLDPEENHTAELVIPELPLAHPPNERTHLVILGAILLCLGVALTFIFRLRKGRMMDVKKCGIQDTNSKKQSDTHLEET
# test.details: flow cytometry, Expi293F cells transfected with PD-L1
Please give a number only; it is taken to be in MFI.

# count of solved cases: 3
CD80 I67F/L70R/E88G/A91G/I118V/T120S/T130A ECD-Fc (Fc fusion) VIHVTKEVKEVATLSCGHNVSVEELAQTRIYWQKEKKMVLTMMSGDMNIWPEYKNRTIFDITNNLSFVIRALRPSDEGTYECVVLKYGKDGFKREHLAEVTLSVKADFPTPSISDFEVPSSNIRRIICSASGGFPEPHLSWLENGEELNAINTTVSQDPETELYAVSSKLDFNMTTNHSFMCLIKYGHLRVNQTFNWNTTKQEHFPDN; 6
CD80 A12V/S15F/Y31H/M38L/T41G/M43L/D90N/T130A/P137L/N149D/N152T ECD-Fc (Fc fusion) VIHVTKEVKEVVTLFCGHNVSVEELAQTRIHWQKEKKLVLGMLSGDMNIWPEYKNRTIFDITNNLSIVILALRPSDEGTYECVVLKYEKNAFKREHLAEVTLSVKADFPTPSISDFEIPTSNIRRIICSASGGFPELHLSWLENGEELDAITTTVSQDPETELYAVSSKLDFNMTTNHSFMCLIKYGHLRVNQTFNWNTTKQEHFPDN; 5
CD80 V22A/L70Q/S121P ECD-Fc (Fc fusion) VIHVTKEVKEVATLSCGHNVSAEELAQTRIYWQKEKKMVLTMMSGDMNIWPEYKNRTIFDITNNLSIVIQALRPSDEGTYECVVLKYEKDAFKREHLAEVTLSVKADFPTPSISDFEIPTPNIRRIICSTSGGFPEPHLSWLENGEELNAINTTVSQDPETELYAVSSKLDFNMTTNHSFMCLIKYGHLRVNQTFNWNTTKQEHFPDN; 5

Ask: Endpoint output: MFI of CD80 I67T/L70Q/A91G/I118V/T120S ECD-Fc (Fc fusion) VIHVTKEVKEVATLSCGHNVSVEELAQTRIYWQKEKKMVLTMMSGDMNIWPEYKNRTIFDITNNLSTVIQALRPSDEGTYECVVLKYEKDGFKREHLAEVTLSVKADFPTPSISDFEVPSSNIRRIICSTSGGFPEPHLSWLENGEELNAINTTVSQDPETELYAVSSKLDFNMTTNHSFMCLIKYGHLRVNQTFHWNTTKQEHFPDN . Value?
Reply: 5

Ask: Could you do the same for CD80 V4M/L70Q/A91G/I118V/T120S/T130A/K169E ECD-Fc (Fc fusion) VIHMTKEVKEVATLSCGHNVSVEELAQTRIYWQKEKKMVLTMMSGDMNIWPEYKNRTIFDITNNLSIVIQALRPSDEGTYECVVLKYEKDGFKREHLAEVTLSVKADFPTPSISDFEVPSSNIRRIICSASGGFPEPHLSWLENGEELNAINTTVSQDPETELYAVSSELDFNMTTNHSFMCLIKYGHLRVNQTFNWNTTKQEHFPDN , please?
Reply: 6

Ask: Item: CD80 R29V/M43Q/E81R/L85I/K89R/D90L/A91E/F92N/K93Q/R94G ECD-Fc (Fc fusion) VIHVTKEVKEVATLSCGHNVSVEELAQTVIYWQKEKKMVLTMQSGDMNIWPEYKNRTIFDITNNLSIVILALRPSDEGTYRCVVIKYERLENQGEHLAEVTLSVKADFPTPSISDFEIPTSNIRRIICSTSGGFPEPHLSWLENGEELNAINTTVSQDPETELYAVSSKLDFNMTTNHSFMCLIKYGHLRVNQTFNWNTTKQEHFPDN
Reply: 1580

Ask: Quick one: CD80 E24G/R29D/Y31L/Q33H/K36G/M38I/T41A/M43R/M47T/F59L/E81V/L85R/K89N/A91T/F92P/K93V/R94L/H96R/N149S/C182S ECD-Fc (Fc fusion) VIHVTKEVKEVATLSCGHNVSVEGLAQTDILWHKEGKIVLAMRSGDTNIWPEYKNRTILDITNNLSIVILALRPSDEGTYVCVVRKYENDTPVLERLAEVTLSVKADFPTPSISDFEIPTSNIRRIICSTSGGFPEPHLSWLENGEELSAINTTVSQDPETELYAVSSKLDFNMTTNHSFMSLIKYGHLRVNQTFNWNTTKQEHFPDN
Reply: 1120

Ask: Entry to check: CD80 S44P/L70Q/A91G/T130A ECD-Fc (Fc fusion) VIHVTKEVKEVATLSCGHNVSVEELAQTRIYWQKEKKMVLTMMPGDMNIWPEYKNRTIFDITNNLSIVIQALRPSDEGTYECVVLKYEKDGFKREHLAEVTLSVKADFPTPSISDFEIPTSNIRRIICSASGGFPEPHLSWLENGEELNAINTTVSQDPETELYAVSSKLDFNMTTNHSFMCLIKYGHLRVNQTFNWNTTKQEHFPDN
Reply: 5

Ask: // next record CD80 A91G/S103P ECD-Fc (Fc fusion) VIHVTKEVKEVATLSCGHNVSVEELAQTRIYWQKEKKMVLTMMSGDMNIWPEYKNRTIFDITNNLSIVILALRPSDEGTYECVVLKYEKDGFKREHLAEVTLPVKADFPTPSISDFEIPTSNIRRIICSTSGGFPEPHLSWLENGEELNAINTTVSQDPETELYAVSSKLDFNMTTNHSFMCLIKYGHLRVNQTFNWNTTKQEHFPDN
Reply: 9

Ask: // next record CD80 A91G/L102S ECD-Fc (Fc fusion) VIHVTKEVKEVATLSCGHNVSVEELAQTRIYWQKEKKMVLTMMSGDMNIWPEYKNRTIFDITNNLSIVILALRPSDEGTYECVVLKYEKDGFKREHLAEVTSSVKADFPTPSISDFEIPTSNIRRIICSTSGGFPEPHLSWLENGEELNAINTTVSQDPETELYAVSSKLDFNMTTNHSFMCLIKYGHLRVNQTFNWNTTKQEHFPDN
Reply: 5

Ask: Another: CD80 K37E/F59S/L70Q/A91G/T120S/T130A ECD-Fc (SEQ ID NO 1397) (Fc fusion) VIHVTKEVKEVATLSCGHNVSVEELAQTRIYWQKEKEMVLTMMSGDMNIWPEYKNRTISDITNNLSIVIQALRPSDEGTYECVVLKYEKDGFKREHLAEVTLSVKADFPTPSISDFEVPSSNIRRIICSASGGFPEPHLSWLENGEELNAINTTVSQDPETELYAVSSKLDFNMTTNHSFMCLIEYGHLRVNQTFNWNTTKQEHFPDN
Reply: 6
